Measured values drawn from paper PMC8244865 for this set.

Molecular target: T1, PLCγ1 cSH2 domain (aa 668-790) (UniProt P19174 668-790)
T1 construct: PLCγ1 C-terminal SH2 domain with the cSH2-SH3 linker, residues 668-790; 15N-labelled for the NMR titration; also called cSH2 (668–790); source: E. coli BL21(DE3), purified (HisTrap, 3C cleavage, SEC)
T1 sequence (looked up): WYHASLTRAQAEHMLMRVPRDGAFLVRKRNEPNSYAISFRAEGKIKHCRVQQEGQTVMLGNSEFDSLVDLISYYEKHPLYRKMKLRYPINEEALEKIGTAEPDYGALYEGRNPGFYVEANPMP
Assay: microfluidic diffusional sizing (Fluidity One-W); 200 nM 5,6-FAM peptide held constant, PLCγ1 domains varied from 0 nM to 8000 nM, room temperature, 100 mM MES, 150 mM NaCl, 3 mM TCEP, pH 6.5; hydrodynamic radius fitted; triplicate
Settings: both partners purified
Non-standard residues stand in square brackets, D forms with d. No end group written: not given here. pY = N[C@@H](Cc1ccc(OP(=O)(O)O)cc1)C(=O)O
assay_readout: Kd (nM)
Your answer is read as nM, so omit the unit and give the number.

Enquiry: Could you share which Kd value was measured for {5,6‑FAM}-DDL[pY]EEVLFPRN (last 12 residues of KSHV pK15 cytoplasmic tail; also called 5,6-FAM-labelled pK15 (12mer); phosphorylated pK15 peptide; source: synthetic peptide, bought: Caslo ApS) [5,6-FAM-labelled phosphorylated pK15 12mer peptide] ?
Return: 166
